What IC95 was measured for each of the following?
- subject_of_test: Human immunodeficiency virus type 1 protease (Human immunodeficiency virus 1) (UniProt Q72874)
- measurement_description: Cellular antiviral activity against HIV-1 Protease
# value in nM; strip the unit string

Determine from records and report IC95 for CC(C)(C)OC(=O)N[C@@H](Cc1ccccc1)[C@@H](O)C[C@]1(Cc2ccccc2)N=CC(C2c3ccccc3C[C@H]2O)=C1O (some centres undefined)
800

Give reported IC95 value for O=C(N[C@@H](Cc1ccccc1)[C@@H](O)C[C@@H](Cc1ccccc1)C(=O)NC1c2ccccc2C[C@H]1O)OC1CCOC1 (single isomer, unassigned)
3

Find the measured IC95 of CC(C)(C)NC(=O)[C@@H]1CN(Cc2cccnc2)CCN1C[C@@H](O)C[C@@H](Cc1ccccc1)C(=O)NC1c2ccccc2C[C@H]1O (single isomer, unassigned) and report it.
25

Determine from records and report IC95 for O=C(N[C@@H](Cc1ccccc1)[C@@H](O)C[C@]1(Cc2ccccc2)N=CC(C2c3ccccc3C[C@H]2O)=C1O)O[C@H]1CCOC1 (some centres undefined)
100

All figures here come from ChEMBL document CHEMBL1130425.
